# test target: HLA-A*02:01 (Homo sapiens, UniProt P04439, D140Y/D185E/D98H/E176V/E277Q/G131W/G231S/I119V/I121R/I166T/I218V/L300P/L318F/N151K/N90K/P208A/P217A/Q86G/Q94H/R138H/R169H/T345S)
# assay details: MHC binding assay (UV-ligand exchange, ELISA of exchange yield)
# measurement setup: binding to HLA-A*02:01, UV-ligand exchange
measurement kind: Peptide exchange (MHC class I binding score, peptide exchange yield)

Example entries begin here.
312 (IISDLTIAL; listed as Homo sapiens) [compound 312] = “+++” (≥50 = +++)
389 (LLADVTHLL; listed as Homo sapiens) [compound 389] = “++” (≥20% = ++)
217 (ALIHPVSTV; listed as Homo sapiens) [compound 217] = “++” (≥20% = ++)
243 (LLLNELPSV; listed as Homo sapiens) [compound 243] = “+++” (≥50 = +++)
379 (IMEGTLTRV; listed as Homo sapiens) [compound 379] = “++” (≥20% = ++)
497 (GLLEKLTAI; listed as Homo sapiens) [compound 497] = “+++” (≥50 = +++)
126 (VLAYFLPEA; listed as Homo sapiens) [compound 126] = “++++” (≥75% = ++++)
118 (KLIDNNINV; listed as Homo sapiens) [compound 118] = “+++” (≥50 = +++)

GET /value?item= 458 (SLIDKLYNI; listed as Homo sapiens) [compound 458] &field=Peptide exchange (MHC class I binding score, peptide exchange yield) returns “++” (≥20% = ++)

For reference, reported Peptide exchange (MHC class I binding score, peptide exchange yield) for 34 (ILVEADSLWVV; listed as Homo sapiens) [compound 34] stands at “+++” (≥50 = +++)

====

# test target: HLA-A*02:01 (Homo sapiens, UniProt P04439, D140Y/D185E/D98H/E176V/E277Q/G131W/G231S/I119V/I121R/I166T/I218V/L300P/L318F/N151K/N90K/P208A/P217A/Q86G/Q94H/R138H/R169H/T345S)
# assay details: MHC binding assay (UV-ligand exchange, ELISA of exchange yield)
# measurement setup: binding to HLA-A*02:01, UV-ligand exchange
measurement kind: Peptide exchange (MHC class I binding score, peptide exchange yield)

Solved cases (10 shown):
493 (GLLGEKTQDLIGV; listed as Homo sapiens) [compound 493] = “+++” (≥50 = +++)
465 (QLCDLNAEL; listed as Homo sapiens) [compound 465] = “+++” (≥50 = +++)
77 (ILVEADGAWVV; listed as Homo sapiens) [compound 77] = “++++” (≥75% = ++++)
15 (VLLTFKIFL; listed as Homo sapiens) [compound 15] = “++” (≥20% = ++)
117 (ILPDGEDFLAV; listed as Homo sapiens) [compound 117] = “+++” (≥50 = +++)
407 (YLMDLINFL; listed as Homo sapiens) [compound 407] = “+++” (≥50 = +++)
57 (TLAELQPPVQL; listed as Homo sapiens) [compound 57] = “+++” (≥50 = +++)
488 (FLAEDPKVTL; listed as Homo sapiens) [compound 488] = “+++” (≥50 = +++)
169 (NLPEYLPFV; listed as Homo sapiens) [compound 169] = “+++” (≥50 = +++)
215 (QLINHLHAV; listed as Homo sapiens) [compound 215] = “+++” (≥50 = +++)

The measured Peptide exchange (MHC class I binding score, peptide exchange yield) associated with 330 (QLALKVEGV; listed as Homo sapiens) [compound 330] reads “+++” (≥50 = +++)

For reference, reported Peptide exchange (MHC class I binding score, peptide exchange yield) for 437 (SMAPGLVIQAV; listed as Homo sapiens) [compound 437] stands at “+++” (≥50 = +++)

Just so you know, measured Peptide exchange (MHC class I binding score, peptide exchange yield) for 386 (ILFRYPLTI; listed as Homo sapiens) [compound 386] came out at “+++” (≥50 = +++)

Input 186 (TLFFQQNAL; listed as Homo sapiens) [compound 186] . Output Peptide exchange (MHC class I binding score, peptide exchange yield): “++” (≥20% = ++)

Please fill in: Peptide exchange (MHC class I binding score, peptide exchange yield) reported for 171 (LLLPLQILL; listed as Homo sapiens) [compound 171] = “+++” (≥50 = +++)

====

# test target: HLA-A*02:01 (Homo sapiens, UniProt P04439, D140Y/D185E/D98H/E176V/E277Q/G131W/G231S/I119V/I121R/I166T/I218V/L300P/L318F/N151K/N90K/P208A/P217A/Q86G/Q94H/R138H/R169H/T345S)
# assay details: MHC binding assay (UV-ligand exchange, ELISA of exchange yield)
# measurement setup: binding to HLA-A*02:01, UV-ligand exchange
measurement kind: Peptide exchange (MHC class I binding score, peptide exchange yield)

As a guide, the following entries are already answered.
572 (ALADLIEKELSV; listed as Homo sapiens) [compound 572] = “+++” (≥50 = +++)
297 (VLADIELAQA; listed as Homo sapiens) [compound 297] = “+++” (≥50 = +++)
240 (ILLEQAFYL; listed as Homo sapiens) [compound 240] = “+++” (≥50 = +++)
367 (SLQNHNHQL; listed as Homo sapiens) [compound 367] = “+++” (≥50 = +++)
282 (LLADVVPTT; listed as Homo sapiens) [compound 282] = “+++” (≥50 = +++)

substance 486 (AVMESIQGV; listed as Homo sapiens) [compound 486] , Peptide exchange (MHC class I binding score, peptide exchange yield) observed: “+++” (≥50 = +++)

Form field Peptide exchange (MHC class I binding score, peptide exchange yield), entry 109 (IILSILEQA; listed as Homo sapiens) [compound 109] : “++++” (≥75% = ++++)

Note to self: Peptide exchange (MHC class I binding score, peptide exchange yield) recorded for 209 (KLIESKHEV; listed as Homo sapiens) [compound 209] was “++” (≥20% = ++)

Input 351 (SLIPNLRNV; listed as Homo sapiens) [compound 351] . Output Peptide exchange (MHC class I binding score, peptide exchange yield): “+++” (≥50 = +++)

get_value(item= 180 (FQIDPHSGLVTV; listed as Homo sapiens) [compound 180] , readout=Peptide exchange (MHC class I binding score, peptide exchange yield)) returns “++” (≥20% = ++)

// Peptide exchange (MHC class I binding score, peptide exchange yield) value for 500 (SLMEDQVLQL; listed as Homo sapiens) [compound 500] : “+++” (≥50 = +++)

// sample 43 (VLSSLEINI; listed as Homo sapiens) [compound 43] , its Peptide exchange (MHC class I binding score, peptide exchange yield) was “++” (≥20% = ++)

Memo: 357 (SMHDLVLQV; listed as Homo sapiens) [compound 357] , reported Peptide exchange (MHC class I binding score, peptide exchange yield): “+++” (≥50 = +++)

The substance 184 (YLMDINGKMWL; listed as Homo sapiens) [compound 184] showed Peptide exchange (MHC class I binding score, peptide exchange yield) equal to “+++” (≥50 = +++)

Noted for 401 (ILLDDTGLAYI; listed as Homo sapiens) [compound 401] : its Peptide exchange (MHC class I binding score, peptide exchange yield) reads “+++” (≥50 = +++)

====

# test target: HLA-A*02:01 (Homo sapiens, UniProt P04439, D140Y/D185E/D98H/E176V/E277Q/G131W/G231S/I119V/I121R/I166T/I218V/L300P/L318F/N151K/N90K/P208A/P217A/Q86G/Q94H/R138H/R169H/T345S)
# assay details: MHC binding assay (UV-ligand exchange, ELISA of exchange yield)
# measurement setup: binding to HLA-A*02:01, UV-ligand exchange
measurement kind: Peptide exchange (MHC class I binding score, peptide exchange yield)

The following substances have reported results that may help.
505 (SLAPGDVVRQV; listed as Homo sapiens) [compound 505] = “++” (≥20% = ++)
364 (LLQNEQFEL; listed as Homo sapiens) [compound 364] = “+++” (≥50 = +++)
612 (YLYNEGLSV; listed as Homo sapiens) [compound 612] = “+++” (≥50 = +++)
85 (KMSELRVTL; listed as Homo sapiens) [compound 85] = “+++” (≥50 = +++)
412 (YLDDLNEGVYI; listed as Homo sapiens) [compound 412] = “++” (≥20% = ++)
129 (GLLDGGVDILL; listed as Homo sapiens) [compound 129] = “+++” (≥50 = +++)
258 (ELAERVPAI; listed as Homo sapiens) [compound 258] = “++” (≥20% = ++)
97 (SLINGSFLV; listed as Homo sapiens) [compound 97] = “+++” (≥50 = +++)
340 (ALLSMTFPL; listed as Homo sapiens) [compound 340] = “++++” (≥75% = ++++)
157 (SLNDEVPEV; listed as Homo sapiens) [compound 157] = “++” (≥20% = ++)

// Peptide exchange (MHC class I binding score, peptide exchange yield) lookup, substance = 545 (LLADLLHNV; listed as Homo sapiens) [compound 545] , result: “+++” (≥50 = +++)

// field: Peptide exchange (MHC class I binding score, peptide exchange yield); key: 70 (GLLDYPVGV; listed as Homo sapiens) [compound 70] ; value = “+++” (≥50 = +++)

For 439 (YLLQEIYGI; listed as Homo sapiens) [compound 439] the substance record lists Peptide exchange (MHC class I binding score, peptide exchange yield) as “+++” (≥50 = +++)

Field Peptide exchange (MHC class I binding score, peptide exchange yield) (entry 531 (YTLPIASSIRL; listed as Homo sapiens) [compound 531] ) reads “+++” (≥50 = +++)

Sample 585 (ALWDLAADKQTL; listed as Homo sapiens) [compound 585] ; Peptide exchange (MHC class I binding score, peptide exchange yield) observed: “++++” (≥75% = ++++)
